- Target Or Test System: T1, biotinylated cynomolgus GDF-15 (cynomolgus, UniProt G7PWZ3 197-308, biotinylated, sites not stated)
- T1 construct: also called Cyno GDF-15
- T1 sequence: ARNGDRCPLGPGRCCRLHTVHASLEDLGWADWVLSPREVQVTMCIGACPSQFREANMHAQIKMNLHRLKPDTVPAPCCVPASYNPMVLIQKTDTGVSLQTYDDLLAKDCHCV
- Experiment Description: HTRF binding assay, biotinylated antigen, titration of antibody

Binder	binding result
AB1170047 (antibody, V domains shown) VH: QVQLQQSGPELVKPGASVKLSCKASGYTFTSYDINWVKQRPGQGLEWIGWIYPRDGISKYNEKFKGKATLTVDTSSSTAYMELHSLTSEDSAVYFCAGTYDPAYFDYWGQGTTLTVSS VL: DIVLTQSPATLSVTPGDRVSLSCRASQSISYYLHWYQQKSHESPRLLIKYASQSISGIPSRFSGSGSGTDFTLSINSVETEDFGMYFCQQSNSWPYTFGGGTKLEIK	binds
AB1170086 (antibody, V domains shown) VH: QVTLKESGPGILQSSQTLSLTCSFSGFSLSTSGMGVSWIRQPSGKGLEWLAHIYWDDDKRYNPSLESRLTISKDTSRNQVFLKITSVDTTDTATYYCARGGYDGYYDYWGQGTTLTVSS VL: DVVMTQTPLSLPVSLGDQASISCRSSQSIVHSNGNTNLEWYLQKPGQSPKLLIYKVSNRLSGVPDRFSGSGSGTDSTLKISRVEAEDLGVYYCFQGSHVRTFGGGTKLEIK	binds
AB1170070 (antibody, V domains shown) VH: EVQLQQSGPELVKPGASVKIPCKASGYTFTDYNMDWVKQSHGKSLEWIGDINPYNGITIYNQKFKGKATLTVDKSSSTAYMELRSLTSEDTAVYYCAREEKLGTSFDYWGQGTTLTVSS VL: DIQMTQSPASLSASVGETVTITCRASENIYSNLAWYQQKQGKSPQLLVYAATNLADGVPSRFSGSGSGTQFSLKINSLQPEDFGSYYCQHFYGTPWTFGGGTKLEIK	binds

Origin of measurements: patent US20220281965A1
